- tested_target: neurotensin receptor 1 (NTR1) (Homo sapiens (Human))
- Sequence (P30989 whole entry, species assumed): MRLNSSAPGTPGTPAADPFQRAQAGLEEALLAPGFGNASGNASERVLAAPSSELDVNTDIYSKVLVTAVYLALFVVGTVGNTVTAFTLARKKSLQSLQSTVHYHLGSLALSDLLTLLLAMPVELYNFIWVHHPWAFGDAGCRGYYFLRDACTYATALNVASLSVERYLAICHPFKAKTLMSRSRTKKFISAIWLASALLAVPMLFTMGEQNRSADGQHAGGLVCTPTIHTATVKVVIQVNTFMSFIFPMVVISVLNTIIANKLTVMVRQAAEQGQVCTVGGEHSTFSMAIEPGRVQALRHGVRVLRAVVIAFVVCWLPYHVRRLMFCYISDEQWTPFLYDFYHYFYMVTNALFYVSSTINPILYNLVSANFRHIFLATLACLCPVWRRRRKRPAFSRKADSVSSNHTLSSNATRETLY
- assay_notes: NTR1 dose response, high-content imaging beta-arrestin-GFP assay in NTR1-U2OS cells
- Type: cell-based
- conditions: read-out: EC50
quantity: EC50

compound | quantity | result
CCCN(C)c1ccc2nc(C3(N(C)CCC)CC3)nc(N3CCC(c4ccccc4OC)CC3)c2c1 | EC50 | > 10 µM
COc1cccnc1C1CCN(c2nc(C3(F)CC3)nc3ccc(N(C)CCO)cc23)CC1 | EC50 | 0.5 to 2 µM
COc1ccccc1C1CCN(c2nc(C3(C)CC3)nc3ccc(N(C)CCN(C)C)cc23)CC1 | EC50 | > 10 µM
CN(C)c1ccc2nc(C3CC3)nc(N3CCN(c4ccccc4N4CCC4)CC3)c2c1 | EC50 | 0.5 to 2 µM
Cc1cc2nc(C3CC3)nc(N3CCC(c4ccccc4N(C)C)CC3)c2cc1N(C)CCO | EC50 | 0.5 to 2 µM
CCCN(C)c1cc2c(N3CCC(c4cc(F)ccc4OC)CC3)nc(C3CC3)nc2cc1C | EC50 | > 10 µM
CCOC(=O)CN(CC(=O)OCC)C1CCN(c2ccc3nc(C4CC4)nc(N4CCC(c5ccccc5OC)CC4)c3c2)CC1 | EC50 | > 10 µM
CCCN(C)c1ccc2nc(C3CCCC3)nc(N3CCC(c4ccccc4OC)CC3)c2c1 | EC50 | > 10 µM
COc1ccccc1C1CCN(c2nc(C3CC3)nc3c(C)cc(N(C)CCO)cc23)CC1 | EC50 | < 0.5 µM
COc1ccccc1C1CCN(c2nc(C3CC3)nc3ccc(N4CCC(N(C)C)CC4)cc23)CC1 | EC50 | > 10 µM
COCCN(C)Cc1ccc2nc(C3CC3)nc(N3CCC(c4ccccc4OC)CC3)c2c1 | EC50 | 2 to 10 µM
CN(C)c1ccccc1C1CCN(c2nc(C3(C)CC3)nc3ccc(N(C)CCN4CCOCC4)cc23)CC1 | EC50 | > 10 µM
COc1ccccc1C1CCN(c2nc(C3CCC3)nc3ccc(N(C)CCN4CCOCC4)cc23)CC1 | EC50 | 2 to 10 µM
COc1ccccc1C1CCN(c2nc(C#CC3CC3)nc3ccc(N(C)CCO)cc23)CC1 [Example 191] | EC50 | 2 to 10 µM

FYI, the data here is from patent US10118902B2.
